Would you mind telling me the reported Indifferent (number) of each entry?
- experiment_notes: Synergy testing by the checkerboard method, FA/co-drug
- Format: cell-based
- measurement_parameters: FA combined with the co-drug

Any idea what Indifferent (number) was measured for CN[C@H](CC(C)C)C(=O)N[C@H]1C(=O)N[C@@H](CC(N)=O)C(=O)N[C@H]2C(=O)N[C@H]3C(=O)N[C@H](C(=O)N[C@H](C(=O)O)c4cc(O)cc(O)c4-c4cc3ccc4O)[C@H](O)c3ccc(c(Cl)c3)Oc3cc2cc(c3O[C@@H]2O[C@H](CO)[C@@H](O)[C@H](O)[C@H]2O[C@H]2C[C@](C)(N)[C@H](O)[C@H](C)O2)Oc2ccc(cc2Cl)[C@H]1O ?
4

Please give the result for Cc1onc(-c2ccccc2)c1C(=O)N[C@@H]1C(=O)N2[C@@H]1SC(C)(C)[C@@H]2C(=O)O too.
3

Cool, now C[C@H]1COc2c(N3CCN(C)CC3)c(F)cc3c(=O)c(C(=O)O)cn1c23
4

Note, next up: CO[C@H]1/C=C/O[C@@]2(C)Oc3c(C)c(O)c4c(O)c(c(/C=N/N5CCN(C)CC5)c(O)c4c3C2=O)NC(=O)/C(C)=C\C=C\[C@H](C)[C@H](O)[C@@H](C)[C@@H](O)[C@@H](C)[C@H](OC(C)=O)[C@@H]1C
0

---

- experiment_notes: Synergy testing by the checkerboard method, FA/co-drug
- Assay type: cell-based
- measurement_parameters: FA combined with the co-drug
observable: Additive (number)
Would you mind answering with just the numeric figure?

Requested field: Additive (number). Item: Cc1onc(-c2ccccc2)c1C(=O)N[C@@H]1C(=O)N2[C@@H]1SC(C)(C)[C@@H]2C(=O)O
1

Try the compound C[C@H]1COc2c(N3CCN(C)CC3)c(F)cc3c(=O)c(C(=O)O)cn1c23
0

Could you do the same for CN[C@H](CC(C)C)C(=O)N[C@H]1C(=O)N[C@@H](CC(N)=O)C(=O)N[C@H]2C(=O)N[C@H]3C(=O)N[C@H](C(=O)N[C@H](C(=O)O)c4cc(O)cc(O)c4-c4cc3ccc4O)[C@H](O)c3ccc(c(Cl)c3)Oc3cc2cc(c3O[C@@H]2O[C@H](CO)[C@@H](O)[C@H](O)[C@H]2O[C@H]2C[C@](C)(N)[C@H](O)[C@H](C)O2)Oc2ccc(cc2Cl)[C@H]1O , please?
2

What would you report for CO[C@H]1/C=C/O[C@@]2(C)Oc3c(C)c(O)c4c(O)c(c(/C=N/N5CCN(C)CC5)c(O)c4c3C2=O)NC(=O)/C(C)=C\C=C\[C@H](C)[C@H](O)[C@@H](C)[C@@H](O)[C@@H](C)[C@H](OC(C)=O)[C@@H]1C ?
1
